Where do the numbers come from? From patent US20200101034A1.

Assay: Cannabis/SNAC oral rat pharmacokinetic (PK) study
Type: in vivo, rats
Conditions: rat, plasma, po; read-out: AUC0-Tlast
Known AUC(0-t) of a selection of compounds
assay_readout: AUC(0-t)

CCCCCc1cc(O)c2c(c1)OC(C)(C)[C@@H]1CCC(C)=C[C@@H]21 [THC, delta-9-tetrahydrocannabinol]: 0.171 to 1.26 µg·h/mL
C=C(C)[C@@H]1CCC(C)=C[C@H]1c1c(O)cc(CCCCC)cc1O: 0.0132 to 0.382 µg·h/mL
